Where do the numbers come from? From patent US20260125382A1.

# target.entity: CDK9 (Homo sapiens, UniProt P50750)
# Construct: endogenous in cells; host or cells: MDA-MB-231
# Sequence (P50750 whole entry): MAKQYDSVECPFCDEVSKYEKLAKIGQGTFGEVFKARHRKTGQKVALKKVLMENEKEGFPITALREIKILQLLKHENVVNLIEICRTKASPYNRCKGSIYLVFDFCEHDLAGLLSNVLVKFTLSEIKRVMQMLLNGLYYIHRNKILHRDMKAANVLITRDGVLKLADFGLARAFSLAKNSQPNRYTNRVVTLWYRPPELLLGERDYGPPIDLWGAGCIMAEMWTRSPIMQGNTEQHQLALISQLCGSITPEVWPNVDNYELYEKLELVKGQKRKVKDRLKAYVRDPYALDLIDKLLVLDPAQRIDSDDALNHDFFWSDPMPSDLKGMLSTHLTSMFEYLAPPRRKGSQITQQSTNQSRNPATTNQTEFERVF
# procedure.details: CDK protein degradation activity (Western blotting), CDK9
# Format: cell-based
# condition: MDA-MB-231 cells, 10 μM, 16 hours, Western blot
readout.type: Enzyme degradation CDK9 (% remaining) @ 10 μM (%)
Give bare numbers, in %.

Use these answered entries as a reference point.
compound	obs.value
O=C1CC[C@H](N2C(=O)c3cc(F)c(N4CCC(C(=O)N5CCC(CN6CCN(c7ccc(Nc8ncnc9c8ncn9C8CC(NC(=O)Cc9ccccc9)C8)cc7)CC6)CC5)CC4)cc3C2=O)C(=O)N1 (stereo partly shown)	10
O=C1CC[C@H](N2C(=O)c3ccc(OCC(=O)N4CCC5(CC4)CC(N4CCN(c6ccc(Nc7ncnc8c7ncn8[C@H]7C[C@@H](NC(=O)Cc8ccccc8)C7)cc6)CC4)C5)cc3C2=O)C(=O)N1	0
Cc1cccc(C(=O)NC2CC(n3cnc4c(NC5CCN(CCCN6CCN(c7cccc8c7C(=O)N([C@H]7CCC(=O)NC7=O)C8=O)CC6)CC5)ncnc43)C2)n1 (stereo partly shown)	10
O=C(COc1cccc2c1C(=O)N(C1CCC(=O)NC1=O)C2=O)NCC1CCC(CN2CCN(c3ccc(Nc4ncnc5c4ncn5C4CC(NC(=O)Cc5ccccc5)C4)cc3)CC2)CC1 (stereo not shown)	0
O=C1CC[C@H](N2C(=O)c3cccc(N4CCC(CN5CCC(CNc6ncnc7c6ncn7C6CC(NC(=O)c7c(Cl)cccc7Cl)C6)CC5)CC4)c3C2=O)C(=O)N1 (stereo partly shown)	0
Cc1cccc(C(=O)NC2CC(n3cnc4c(NCc5ccc(N6CCN(CC7CCN(c8cccc9c8C(=O)N([C@H]8CCC(=O)NC8=O)C9=O)CC7)CC6)cc5)ncnc43)C2)n1 (stereo partly shown)	0
O=C1CCC(N2C(=O)c3ccc(N4CCC(C(=O)N5CC(N6CCN(c7ccc(Nc8ncnc9c8ncn9[C@H]8C[C@@H](NC(=O)Cc9ccccc9)C8)cc7)CC6)C5)CC4)cc3C2=O)C(=O)N1 (stereo partly shown)	30
Cc1cccc(C(=O)NC2CC(n3cnc4c(NCCCN5CCN(CC6CCN(C(=O)COc7cccc8c7C(=O)N([C@@H]7CCC(=O)NC7=O)C8=O)CC6)CC5)ncnc43)C2)n1 (stereo partly shown)	0

# next compound below
Which value of Enzyme degradation CDK9 (% remaining) @ 10 μM has been reported for Cc1cccc(C(=O)NC2CC(n3cnc4c(Nc5ccc(N6CCN(CC7CCN(c8cccc9c8C(=O)N([C@H]8CCC(=O)NC8=O)C9=O)CC7)CC6)cc5)ncnc43)C2)n1 (stereo partly shown) in the records?
0
